# systemName: SCRIB_3, Q14160
# Sequence (Q14160 999-1103): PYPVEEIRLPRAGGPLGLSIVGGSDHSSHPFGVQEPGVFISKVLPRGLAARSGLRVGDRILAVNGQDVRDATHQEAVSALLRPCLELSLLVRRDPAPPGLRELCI
# measurementProtocol: holdup assay
# Set-up: key: below the threshold = too weak to quantify, mostly under pKd 3.1 to 4
# settings: plain residues with an end cap or a label only (N-terminal biotin on a linker: ado-ado)
We use 4 as the dividing line for pKd: on or above the line is label 1, below is label 0.

Request: Assess whether reported pKd for HLSTRQGTCV [ATRNL1, Q5VV63] sits at 4 or higher.
Result: label 1

Request: Assess whether reported pKd for SGDGKTSVWI [GJC1, P36383] sits at 4 or higher.
Result: label 1

Request: Assess whether reported pKd for HYPASPDSWV [CTNND2, Q9UQB3] sits at 4 or higher.
Result: label 1

Request: Assess whether reported pKd for SAGADSETHC [SLCO1B1, Q9Y6L6] sits at 4 or higher.
Result: label 0

Request: Assess whether reported pKd for QKASRNESTF [POLR1D, P0DPB6] sits at 4 or higher.
Result: label 1

Request: Assess whether reported pKd for HDDYFYHDEL [RCN2, Q14257] sits at 4 or higher.
Result: label 0

Every entry's value here was drawn from paper PMC9482650.
